# Assayed Target: Flt3 (D835Y) (h) (Homo sapiens, UniProt P36888, D835Y)
# Construct: purchased Eurofins
# Sequence (P36888 27-993 D835Y): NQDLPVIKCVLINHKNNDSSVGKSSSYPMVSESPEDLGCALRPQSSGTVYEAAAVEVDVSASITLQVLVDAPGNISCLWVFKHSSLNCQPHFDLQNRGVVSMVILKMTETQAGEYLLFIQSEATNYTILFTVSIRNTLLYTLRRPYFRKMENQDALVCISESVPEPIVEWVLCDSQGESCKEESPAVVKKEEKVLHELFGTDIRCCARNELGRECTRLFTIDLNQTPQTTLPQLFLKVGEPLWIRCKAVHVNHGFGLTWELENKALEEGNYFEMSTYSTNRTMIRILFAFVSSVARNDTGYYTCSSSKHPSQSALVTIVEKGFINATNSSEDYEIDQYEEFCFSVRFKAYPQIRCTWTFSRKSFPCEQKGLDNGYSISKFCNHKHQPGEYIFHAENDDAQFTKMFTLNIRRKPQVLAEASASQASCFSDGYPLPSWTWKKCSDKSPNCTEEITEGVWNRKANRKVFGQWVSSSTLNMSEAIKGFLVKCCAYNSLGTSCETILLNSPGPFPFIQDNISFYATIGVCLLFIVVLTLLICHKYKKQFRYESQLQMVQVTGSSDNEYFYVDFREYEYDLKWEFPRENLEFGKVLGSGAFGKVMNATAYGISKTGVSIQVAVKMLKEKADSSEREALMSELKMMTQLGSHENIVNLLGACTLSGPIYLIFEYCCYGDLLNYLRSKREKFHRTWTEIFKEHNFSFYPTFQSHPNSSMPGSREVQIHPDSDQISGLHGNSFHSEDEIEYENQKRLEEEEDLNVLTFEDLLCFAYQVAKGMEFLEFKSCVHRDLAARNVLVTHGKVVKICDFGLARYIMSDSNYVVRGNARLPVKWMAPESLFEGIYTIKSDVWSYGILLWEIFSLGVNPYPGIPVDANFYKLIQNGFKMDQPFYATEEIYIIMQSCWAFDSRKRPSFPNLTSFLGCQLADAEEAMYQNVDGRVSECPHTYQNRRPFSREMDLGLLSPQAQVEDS
# Assay Procedure: Radioisotope labeling kinase assay (Eurofins), Flt3 (D835Y)
# Assay type: biochemical
# Assay Conditions: 1 μM compound; read-out: Inhibitory activity per unit concentration/Activity % Flt3 (D835Y) (h)
# Method: An activity to a human recombinant protein kinase of a series of compounds was determined by a radioisotope labeling method, which was provided by Eurofins Company. […]
Observable: activity at 1 µM

>>> reading("C1=C/COCc2ccc(OC/C=C/CN3CCCC3)c(c2)Nc2nccc(n2)-c2cccc(c2)COC/1")
"33%"
>>> reading("NC1CCN(C/C=C/C(=O)Nc2cc3cc(c2)Nc2nccc(n2)-c2cccc(c2)COC/C=C/COC3)C1 (stereo not drawn)")
"8%"
>>> reading("C#CC(=O)Nc1cc2cc(c1)Nc1nccc(n1)-c1cccc(c1)COC/C=C/COC2")
"-1%"

----------
# Assayed Target: BTK (h) (Homo sapiens)
# Construct: purchased Eurofins
# Sequence (Q06187 whole entry): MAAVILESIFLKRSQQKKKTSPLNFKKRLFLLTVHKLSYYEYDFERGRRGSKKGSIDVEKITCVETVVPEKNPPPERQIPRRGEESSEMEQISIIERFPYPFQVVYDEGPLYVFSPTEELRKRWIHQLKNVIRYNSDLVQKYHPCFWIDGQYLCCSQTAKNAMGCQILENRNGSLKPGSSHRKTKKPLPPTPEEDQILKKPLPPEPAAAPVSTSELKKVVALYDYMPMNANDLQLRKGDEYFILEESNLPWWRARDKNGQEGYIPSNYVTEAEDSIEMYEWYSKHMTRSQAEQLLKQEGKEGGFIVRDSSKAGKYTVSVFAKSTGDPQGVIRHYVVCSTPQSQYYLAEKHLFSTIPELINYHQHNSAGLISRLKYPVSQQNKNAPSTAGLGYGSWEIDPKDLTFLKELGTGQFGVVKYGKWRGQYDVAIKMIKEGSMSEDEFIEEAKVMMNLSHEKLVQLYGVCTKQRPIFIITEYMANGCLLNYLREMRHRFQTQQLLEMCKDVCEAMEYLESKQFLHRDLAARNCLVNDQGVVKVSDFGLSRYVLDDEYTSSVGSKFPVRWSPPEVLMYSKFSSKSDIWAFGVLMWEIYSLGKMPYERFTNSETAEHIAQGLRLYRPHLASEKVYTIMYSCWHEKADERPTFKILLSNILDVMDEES
# Assay Procedure: Radioisotope labeling kinase assay (Eurofins), BTK
# Format: biochemical
# Assay Conditions: 1 μM compound; read-out: Inhibitory activity per unit concentration/Activity % BTK (h)
Binary call on activity at 1 µM with cut-off 40%: strictly below means true, and equality or higher means false.

>>> group("NC1CCN(C/C=C/C(=O)Nc2cc3cc(c2)Nc2nccc(n2)-c2cccc(c2)COC/C=C/COC3)C1 (stereo not shown) [XVI-17]")
"true"
>>> group("CN1CCC(NC(=O)/C=C/COc2ccc3cc2Nc2nccc(n2)-c2cccc(c2)COC/C=C/COC3)C1 (stereo not shown) [XVI-24]")
"false"
>>> group("O=C(/C=C/CNC1CCOC1)Nc1cc2cc(c1)Nc1nccc(n1)-c1cccc(c1)CCC/C=C/COC2 (stereo not shown) [XVI-19]")
"true"
>>> group("CN1C/C=C/COCc2cccc(c2)-c2ccnc(n2)Nc2cc(cc(NC(=O)/C=C/c3cnc[nH]3)c2)C1 [XVI-32]")
"false"
>>> group("O=C(/C=C/COc1cc2cc(c1)Nc1nccc(n1)-c1cccc(c1)COC/C=C/COC2)N1CCOCC1 [XVI-14]")
"false"
>>> group("C1=C/COCc2cccc(c2)-c2ccnc(n2)Nc2cc(cc(OC/C=C/CN3CCOCC3)c2)COC/1 [XVI-16]")
"false"
>>> group("O=C(/C=C/c1cnc[nH]1)Nc1cc2cc(c1)Nc1nccc(n1)-c1cccc(c1)COC/C=C/COC2 [XVI-7]")
"false"
>>> group("C=CC(=O)Nc1cc2cc(c1)Nc1nccc(n1)-c1cccc(c1)COC/C=C/COC2 [XVI-6]")
"true"
>>> group("CCCC#CC(=O)Nc1cc2cc(c1)Nc1nccc(n1)-c1cccc(c1)COC/C=C/COC2 [XVII-2]")
"true"
>>> group("O=C(/C=C/COc1ccc2cc1Nc1nccc(n1)-c1cccc(c1)COC/C=C/COC2)N1CCCC1 [XVI-21]")
"false"
>>> group("C=CC(=O)Nc1cc2cc(c1)Nc1nccc(n1)-c1cccc(c1)COC/C=C/CN(C)C2 [XVI-31]")
"false"
>>> group("O=C(/C=C/CN1CCOCC1)Nc1cc2cc(c1)Nc1nccc(n1)-c1cccc(c1)COC/C=C/COC2 [XVI-3]")
"true"
>>> group("O=C(/C=C/C(=O)N1CCCC1)Nc1cc2cc(c1)Nc1nccc(n1)-c1cccc(c1)COC/C=C/COC2 [XVI-33]")
"false"
>>> group("CN1C/C=C/COCc2cccc(c2)-c2ccnc(n2)Nc2cc(cc(NC(=O)/C=C/CN3CCCC3)c2)C1 [XVI-25]")
"false"
>>> group("O=C(/C=C/CN1CCC(O)C1)Nc1cc2cc(c1)Nc1nccc(n1)-c1cccc(c1)COC/C=C/COC2 (stereo not shown) [XVI-18]")
"true"
>>> group("CN1C/C=C/COCc2cccc(c2)-c2ccnc(n2)Nc2cc(cc(NC(=O)/C=C/C(F)(F)F)c2)C1 [XVI-29]")
"false"
>>> group("CN(C)C/C=C/C(=O)Nc1cc2cc(c1)Nc1nccc(n1)-c1cccc(c1)COC/C=C/COC2 [XVI-8]")
"true"
>>> group("C1=C/COCc2ccc(OC/C=C/CN3CCOCC3)c(c2)Nc2nccc(n2)-c2cccc(c2)COC/1 [XVI-23]")
"false"
>>> group("CN1C/C=C/COCc2cccc(c2)-c2ccnc(n2)Nc2cc(N)cc(c2)C1 [XIII-2]")
"false"
>>> group("CN(C)C/C=C/C(=O)Nc1cc2cc(c1)Nc1nccc(n1)-c1cccc(c1)COC/C=C/CN(C)C2 [XVI-26]")
"false"
>>> group("O=C(/C=C/CNC1CCOC1)Nc1cc2cc(c1)Nc1nccc(n1)-c1cccc(c1)COC/C=C/COC2 (stereo not shown) [XVI-15]")
"true"
>>> group("C1=C/COCc2ccc(OC/C=C/CN3CCCC3)c(c2)Nc2nccc(n2)-c2cccc(c2)COC/1 [XVI-20]")
"false"
